- System: primary human hepatic stellate cells (donor 1)
- assay-overview: scaled lipid accumulation score (0 = DMSO-like, 1 = nortriptyline-like); higher = stronger HSC inactivation (lipid re-accumulation), active = hit call of the paper
- condition-info: library stock concentration: 10 mM; 48 h
Counter-ions that a name gives are not always drawn. About 620 (11%) of roughly 5,800 compounds showed activity.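 How the source made its calls: active = score above a cut-off or among the top three wells of a plate; in these data no inactive exceeds 0.85.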 This is one part of a sample in which actives are shown more often than they occur.
Lab note: assign the record to one of y = active, n = inactive

[in] Assay outcome for Nc1ncnc2c1ncn2[C@@H]1O[C@H](CO)C[C@@H]1O [3'-deoxydenosine] : what was it?
[out] n

[in] Assay outcome for CC(=O)c1cnc2ccc(-c3cc(Cl)c(O)c(Cl)c3)nc2c1N[C@H]1CC[C@H](CN(C)C)CC1.Cl : what was it?
[out] y

[in] Assay outcome for COc1cc(OC)c(C=C2C(=O)Nc3ccccc32)c(OC)c1 : what was it?
[out] n

[in] Assay outcome for CN1CC(O)C(O)C(O)C1CO (stereo unspecified) [N-Methyl-1-deoxynojirimycin] : what was it?
[out] n

[in] Assay outcome for CN(C)CC(c1ccc(O)cc1)C1(O)CCCCC1 (stereo unspecified) : what was it?
[out] n

[in] Assay outcome for O=C1Nc2ccccc2/C1=C\c1c(Cl)[nH]c2ccccc12 : what was it?
[out] n

[in] Assay outcome for COC(=O)CCSCc1ccc(-c2onc(C)c2NC(=O)OC(C)c2ccccc2Cl)cc1 (stereo unspecified) : what was it?
[out] n

[in] Assay outcome for O=C1NN(C(=O)Nc2ccc(Br)cc2)[C@@H](c2ccccc2)[C@@H]1c1ccccc1 : what was it?
[out] n

[in] Assay outcome for COc1cc2c(Oc3ccc4[nH]c(C)cc4c3F)ncnc2cc1OCCCN1CCCC1 [Cediranib (AZD2171)] : what was it?
[out] n

[in] Assay outcome for O=C(Nc1cc(C(F)(F)F)cc(C(F)(F)F)c1)c1cc(Cl)ccc1O : what was it?
[out] y

[in] Assay outcome for Cn1cc(C2=C(c3cn(CCCSC(=N)N)c4ccccc34)C(=O)NC2=O)c2ccccc21 : what was it?
[out] n

[in] Assay outcome for Cc1ccc(/C=C2\CNC/C(=C\c3ccc(C)cc3)C2=O)cc1.Cl : what was it?
[out] y

[in] Assay outcome for C#C[C@]1(O)CC[C@H]2[C@@H]3CCc4cc(O)ccc4[C@H]3CC[C@@]21C : what was it?
[out] n

[in] Assay outcome for Cc1cc2c(F)c(Oc3ncnn4cc(OC[C@@H](C)O)c(C)c34)ccc2[nH]1 [Brivanib] : what was it?
[out] n

[in] Assay outcome for NC(C(=O)O)c1cc(O)cc(O)c1 (racemic) : what was it?
[out] n

[in] Assay outcome for Cc1cc2c(cc1Cl)N(C(=O)Nc1ccnc3ccccc13)CC2 : what was it?
[out] y

[in] Assay outcome for O=C(O)[C@H]1NCCC[C@H]1C(=O)O : what was it?
[out] n

[in] Assay outcome for C#C[C@]1(O)CC[C@H]2[C@@H]3CCC4=Cc5oncc5C[C@]4(C)[C@H]3CC[C@@]21C : what was it?
[out] n

[in] Assay outcome for O=C(O[C@@H]1Cc2c(O)cc(O)cc2O[C@@H]1c1cc(O)c(O)c(O)c1)c1cc(O)c(O)c(O)c1 [Epigallocatechin gallate] : what was it?
[out] n

[in] Assay outcome for O=C(Nc1ccc([N+](=O)[O-])cc1Cl)c1cc(Cl)ccc1O [Niclosamide] : what was it?
[out] y

[in] Assay outcome for CC1=C(C(=O)OC(C)C)C(c2cccc([N+](=O)[O-])c2)C(C(=O)OC2CN(C(c3ccccc3)c3ccccc3)C2)=C(N)N1 (stereo unspecified) [Azelnidipine] : what was it?
[out] n

[in] Assay outcome for CCCCc1nn(-c2ccccc2C(F)(F)F)c(=O)n1Cc1ccc(-c2ccccc2S(=O)(=O)NC(=O)c2sccc2C)cc1 : what was it?
[out] n

[in] Assay outcome for COc1ccc(CCN(C)CCCC(C#N)(c2cc(OC)c(OC)c(OC)c2)C(C)C)cc1OC (stereo unspecified) : what was it?
[out] n

[in] Assay outcome for CN(C)CC(c1ccc(O)cc1)C1(O)CCCCC1 (stereo unspecified) [Desvenlafaxine] : what was it?
[out] n

[in] Assay outcome for O=c1oc(-c2ccc(C(F)(F)F)cc2)nn1Cc1cc(Cl)ccc1O : what was it?
[out] n

[in] Assay outcome for COc1ccc(/C=C2\COc3ccc(C)cc3C2=O)cc1O : what was it?
[out] n

[in] Assay outcome for CC1(C)C=C(CN2C/C(=C\c3ccc(F)cc3)C(=O)/C(=C/c3ccc(F)cc3)C2)C(C)(C)N1O : what was it?
[out] n

[in] Assay outcome for Cc1cc2c(F)c(Oc3ncnn4cc(OC[C@@H](C)O)c(C)c34)ccc2[nH]1 : what was it?
[out] n

[in] Assay outcome for Cn1cc(C2=C(c3cn(CCCSC(=N)N)c4ccccc34)C(=O)NC2=O)c2ccccc21 [Ro 31-8220 mesylate] : what was it?
[out] n

[in] Assay outcome for C=CC(=O)Nc1cc(-n2c(=O)ccc3cnc4ccc(-c5cn[nH]c5)cc4c32)ccc1C : what was it?
[out] n

---

- Test system: primary human hepatic stellate cells (donor 1)
- assay-overview: scaled lipid accumulation score (0 = DMSO-like, 1 = nortriptyline-like); higher = stronger HSC inactivation (lipid re-accumulation), active = hit call of the paper
- condition-info: library stock concentration: 10 mM; 48 h
Where a name gives a salt, the structure may show the parent alone. The whole screen tested about 5,800 compounds, of which about 620 (11%) showed activity.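 How the source made its calls: active = score above a cut-off or among the top three wells of a plate; in these data no inactive exceeds 0.85.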 The entries come from a sample that favours actives as a whole.
Lab note: assign the record to one of active, inactive

[in] Assay outcome for CC(CN(C)C)CN1c2ccccc2CCc2ccccc21.O=C(O)/C=C\C(=O)O (centres undefined) [Trimipramine maleate] : what was it?
[out] active

[in] Assay outcome for CC(=O)N[C@@H](CCC(N)=O)C(=O)O : what was it?
[out] inactive

[in] Assay outcome for O=C(c1ccc(C=Cc2n[nH]c3ccccc23)cc1)N1CCNCC1 : what was it?
[out] active

[in] Assay outcome for CC[C@]1(O)C[C@H]2CN(CCc3c([nH]c4ccccc34)[C@@](C(=O)OC)(c3cc4c(cc3OC)N(C=O)[C@H]3[C@@](O)(C(=O)OC)[C@H](OC(C)=O)[C@]5(CC)C=CCN6CC[C@]43[C@@H]65)C2)C1.O=S(=O)(O)O [Vincristine sulfate] : what was it?
[out] active

[in] Assay outcome for O=S(=O)(c1cccc2cnccc12)N1CCCNCC1 : what was it?
[out] inactive

[in] Assay outcome for CC(C)c1ccc2c(c1)CC[C@H]1[C@](C)(CN)CCC[C@]21C [Lylamine hydrochloride] : what was it?
[out] inactive

[in] Assay outcome for CCC1(O)CC2CN(CCc3c([nH]c4ccccc34)[C@@](C(=O)OC)(c3cc4c(cc3OC)N(C=O)C3[C@]45CCN4CC=C[C@@](CC)([C@@H](OC(C)=O)[C@]3(O)C(=O)OC)[C@H]45)C2)C1.O=S(=O)(O)O (some centres undefined) [Vincristine sulfate] : what was it?
[out] active

[in] Assay outcome for O=S(=O)(c1cccc2c(I)cccc12)N1CCCNCC1 : what was it?
[out] active

[in] Assay outcome for CC(C)[C@H](N)C(=O)OCC(CO)OCn1cnc2c(=O)[nH]c(N)nc21 (some centres undefined) [Valganciclovir HCl] : what was it?
[out] inactive

---

- Test system: primary human hepatic stellate cells (donor 1)
- assay-overview: scaled lipid accumulation score (0 = DMSO-like, 1 = nortriptyline-like); higher = stronger HSC inactivation (lipid re-accumulation), active = hit call of the paper
- condition-info: library stock concentration: 10 mM; 48 h
In all, about 5,800 compounds went through this assay and about 620 (11%) showed activity. The sample as a whole holds a higher share of actives than the screen did.
I'd appreciate it if you could supply scaled lipid accumulation score values for the items below.

[in] // fetch primary human hepatic stellate cells (donor 1) scaled lipid accumulation score for NC(=O)c1ccc[n+]([C@@H]2O[C@H](COP(=O)([O-])OP(=O)(O)OC[C@H]3O[C@@H](n4cnc5c(N)ncnc54)[C@H](OP(=O)(O)O)[C@@H]3O)[C@@H](O)[C@H]2O)c1 [Sodium beta-nicotinamide adenine dinucleotide phosphate]
[out] ≤ -0.027 (inactive)

[in] // fetch primary human hepatic stellate cells (donor 1) scaled lipid accumulation score for CC(C)(C)CC(C)(C)c1cc(Cc2cc(C(C)(C)CC(C)(C)C)cc(-n3nc4ccccc4n3)c2O)c(O)c(-n2nc3ccccc3n2)c1
[out] ≤ 0 (inactive)

[in] // fetch primary human hepatic stellate cells (donor 1) scaled lipid accumulation score for COc1cc(N)c(Cl)cc1C(=O)OCCN1CCCCC1
[out] ≤ -0.007 (inactive)

[in] // fetch primary human hepatic stellate cells (donor 1) scaled lipid accumulation score for Cc1cc(-c2ccc(CC(=O)Nc3ccc(-c4cccnc4)cc3)cc2)ccn1
[out] 0.262 (inactive)

[in] // fetch primary human hepatic stellate cells (donor 1) scaled lipid accumulation score for CC1(C)S[C@@H]2[C@H](/N=C/N3CCCCCC3)C(=O)N2[C@H]1C(=O)O
[out] ≤ 0 (inactive)

[in] // fetch primary human hepatic stellate cells (donor 1) scaled lipid accumulation score for CS(=O)(=O)O.Cc1ccc(NC(=O)c2ccc(CN3CCN(C)CC3)cc2)cc1Nc1nccc(-c2cccnc2)n1 [Imatinib Mesylate (STI571)]
[out] 1.1 (active)

[in] // fetch primary human hepatic stellate cells (donor 1) scaled lipid accumulation score for OC(CC1c2ccccc2-c2cncn21)C1CCCCC1 (centres undefined)
[out] 0.209 (inactive)

[in] // fetch primary human hepatic stellate cells (donor 1) scaled lipid accumulation score for COc1cc(C(=O)OCCCN2CCCN(CCCOC(=O)c3cc(OC)c(OC)c(OC)c3)CC2)cc(OC)c1OC.Cl.Cl
[out] 0.84 (active)

[in] // fetch primary human hepatic stellate cells (donor 1) scaled lipid accumulation score for COc1ccc2cc1Oc1ccc(cc1)C[C@H]1c3cc(c(OC)cc3CCN1C)Oc1c(OC)c(OC)cc3c1[C@H](C2)N(C)CC3
[out] 0.45 (inactive)

[in] // fetch primary human hepatic stellate cells (donor 1) scaled lipid accumulation score for C[C@@H]1C[C@H]2[C@@H]3CCC4=CC(=O)C=C[C@]4(C)[C@@]3(F)[C@@H](O)C[C@]2(C)[C@@]1(O)C(=O)CO
[out] ≤ 0 (inactive)

[in] // fetch primary human hepatic stellate cells (donor 1) scaled lipid accumulation score for COc1cc(C(=O)OCCC[NH+]2CCC[NH+](CCCOC(=O)c3cc(OC)c(OC)c(OC)c3)CC2)cc(OC)c1OC.[Cl-].[Cl-] [Dilazep hydrochloride]
[out] 0.951 (active)

[in] // fetch primary human hepatic stellate cells (donor 1) scaled lipid accumulation score for C/C=C/c1ccc(OC)cc1
[out] 0.104 (inactive)
